Target protein (sequence): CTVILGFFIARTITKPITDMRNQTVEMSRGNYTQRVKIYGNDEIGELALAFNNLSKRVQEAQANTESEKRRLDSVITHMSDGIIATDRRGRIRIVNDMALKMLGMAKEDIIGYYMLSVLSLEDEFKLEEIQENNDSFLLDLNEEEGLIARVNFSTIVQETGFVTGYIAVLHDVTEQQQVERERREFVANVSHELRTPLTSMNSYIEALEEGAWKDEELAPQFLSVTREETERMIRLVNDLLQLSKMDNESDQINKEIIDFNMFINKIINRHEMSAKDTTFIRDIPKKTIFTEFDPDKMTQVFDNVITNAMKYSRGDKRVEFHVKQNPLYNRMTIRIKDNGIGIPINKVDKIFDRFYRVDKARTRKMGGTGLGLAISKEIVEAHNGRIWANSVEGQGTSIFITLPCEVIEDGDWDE
experimental.endpoint: IC50 (µM)
Give bare numbers, in µM.

QUERY: Which IC50 value is on record for O=C(C1=C(O)C(=O)N(c2nnc(SCc3ccccc3Cl)s2)C1c1ccccc1O)c1cc2ccccc2o1 (stereo unspecified) ?
RESULT: 19.5

----------
Tested on: Enterococcus faecium
measurement.description: Antibacterial activity against Enterococcus faecium EFM64 by broth microdilution method
Assay type: functional
experimental.endpoint: MIC

Sample records with MIC:
compound	measurement
O=C(C1=C(O)C(=O)N(c2nnc(SCc3ccccc3)s2)C1c1ccc(O)cc1O)c1cc2ccccc2o1 (stereo not given)	> 100 µM
O=C(O)COc1ccc(C2C(C(=O)c3cc4ccccc4o3)=C(O)C(=O)N2c2nnc(SCc3ccccc3Cl)s2)cc1 (stereo not given)	> 100 µM
O=C(C1=C(O)C(=O)N(c2nnc(SCc3ccccc3)s2)C1c1ccccc1O)c1ccc(F)cc1 (stereo not given)	> 100 µM

Each compound below has a recorded value; state its MIC.
1. COc1ccc(O)c(C2C(C(=O)c3cc4ccccc4o3)=C(O)C(=O)N2c2nnc(SCc3ccccc3Cl)s2)c1 (stereo not given)
2. CCCCCCCCCC(=O)N[C@@H](Cc1c[nH]c2ccccc12)C(=O)N[C@H](CC(N)=O)C(=O)N[C@@H](CC(=O)O)C(=O)N[C@@H]1C(=O)NCC(=O)N[C@@H](CCCN)C(=O)N[C@@H](CC(=O)O)C(=O)N[C@H](C)C(=O)N[C@@H](CC(=O)O)C(=O)NCC(=O)N[C@H](CO)C(=O)N[C@@H]([C@H](C)CC(=O)O)C(=O)N[C@@H](CC(=O)c2ccccc2N)C(=O)O[C@@H]1C

RESULT:
100 µM
2 µM

----------
System: Enterococcus faecium
measurement.description: Antibacterial activity against Enterococcus faecium EFM64 by broth microdilution method
Type: functional
experimental.endpoint: MIC

Sample records with MIC:
> print(dat)
                                   compound  experimental.endpoint  measurement
1  COc1cc(C2C(C(=O)c3cc4ccccc4o3)=C(O)C(=O)N2c2nnc(SCc3ccccc3Cl)s2)ccc1O (stereo not drawn)                    MIC     > 100 µM
2  O=C(C1=C(O)C(=O)N(c2nnc(SCc3ccccc3)s2)C1c1ccccc1O)c1cc2ccccc2s1 (stereo not drawn)                    MIC     > 100 µM
3  COC(=O)COc1ccc(C2C(C(=O)c3cc4ccccc4o3)=C(O)C(=O)N2c2nnc(SCc3ccccc3Cl)s2)cc1 (stereo not drawn)                    MIC     > 100 µM
4  O=C(C1=C(O)C(=O)N(c2nnc(SCc3ccc(Cl)cc3)s2)C1c1ccccc1O)c1cc2ccccc2o1 (stereo not drawn)                    MIC        50 µM
5  O=C(C1=C(O)C(=O)N(c2nnc(SCc3ccccc3Cl)s2)C1c1ccccc1)c1cc2ccccc2o1 (stereo not drawn)                    MIC     > 100 µM
6  O=C(C1=C(O)C(=O)N(c2nnc(SCc3ccccc3)s2)C1c1ccccc1O)c1ccc(C(F)(F)F)cc1 (stereo not drawn)                    MIC     > 100 µM

Each compound below has a recorded value; state its MIC.
1. O=C(C1=C(O)C(=O)N(c2nnc(SCc3ccccc3)s2)C1c1ccccc1O)c1ccc([N+](=O)[O-])cc1 (stereo not drawn)
2. O=C(C1=C(O)C(=O)N(c2nnc(SCc3cccc(Cl)c3)s2)C1c1ccccc1O)c1cc2ccccc2o1 (stereo not drawn)

RESULT:
["> 100 µM", "25 µM"]
